Values were extracted from the supplement of paper PMC10567573.

B1: COX4I1 (parent)
chain: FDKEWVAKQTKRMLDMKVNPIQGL

- Variants of: B1
- Assay info: protein stability index of a GFP-peptide fusion (GPS, HEK-293T) (PSI 1-6); higher = more stable;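 further: lentivirally expressed fusions sorted by FACS into six bins by GFP to DsRed ratio, PSI derived from sequencing read proportions per bin multiplied by bin number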
- Measurement parameters: c terminus: a fixed tail appended
Everything with protein stability index lower than 2 is false (0); everything else, including exactly 2, is true (1).

INSERT INTO measurements (record_sequence, category_label) VALUES
  ('FDKEWVAKQTKRMLDMKVNPIWGL [Q22W]', 'false (0)'),
  ('FDKEWEAKQTKRMLDMKVNPIQGL [V6E]', 'true (1)'),
  ('FDKEWWAKQTKRMLDMKVNPIQGL [V6W]', 'true (1)'),
  ('FDKEWVAKQTKRMLDMKVNPIRGL [Q22R]', 'false (0)'),
  ('FDKEWVAKQTKRMLLMKVNPIQGL [D15L]', 'false (0)');
